# Tested on: Hepatocyte
# experimental_protocol: Inhibition of cholesterol synthesis in rat hepatocytes assessed as formation of cholesterol using [14C]mevalonolactone as substrate after 1 hr by liquid scintillation counting
# Format: functional, cell-based
readout_type: pIC50
Give bare numbers, as −log10 of the molar value.

Batch of 2 compounds: report pIC50 for each.
1. COc1cccc([C@H]2O[C@H](CCn3cc(C(=O)O)cn3)c3nnc(C(C)C)n3-c3ccc(Cl)cc32)c1OC (relative stereo)
2. COc1cccc([C@H]2O[C@H](CCn3cc(C(=O)O)cn3)c3nnc(C(F)(F)F)n3-c3ccc(Cl)cc32)c1OC (relative stereo)

1: 7.04; 2: 6.89

Batch of 7 compounds: report pIC50 for each.
1. COc1cccc([C@H]2O[C@H](CC(=O)O)c3nnc(C(F)(F)F)n3-c3ccc(Cl)cc32)c1OC(F)(F)F
2. COc1cccc([C@H]2O[C@H](CC(=O)O)c3nnc(C(F)(F)F)n3-c3ccc(Cl)cc32)c1OC
3. COc1cccc([C@H]2O[C@H](CCn3cc(C(=O)O)cn3)c3nnc(CF)n3-c3ccc(Cl)cc32)c1OC (relative stereo)
4. COc1cccc([C@H]2O[C@H](CC(=O)O)c3nnc(C(F)(F)F)n3-c3ccc(Cl)cc32)c1Cl
5. COc1cccc([C@H]2O[C@H](CC(=O)O)c3nnc(C(F)(F)F)n3-c3ccc(Cl)cc32)c1C
6. COc1cccc([C@H]2O[C@H](CCn3cc(C(=O)O)cn3)c3nnc(C)n3-c3ccc(Cl)cc32)c1OC (relative stereo)
7. CCc1c(OC)cccc1[C@H]1O[C@H](CC(=O)O)c2nnc(C(F)(F)F)n2-c2ccc(Cl)cc21

7.55
7.42
7.11
7.72
7.34
6.54
7.74
